- tested-on: integrin CD11c/CD18 (Homo sapiens, UniProt P20702)
- Construct: expressed in transfected cells; host or cells: K562 (ATCC)
- Sequence (P20702 with tags, fused parts or gaps): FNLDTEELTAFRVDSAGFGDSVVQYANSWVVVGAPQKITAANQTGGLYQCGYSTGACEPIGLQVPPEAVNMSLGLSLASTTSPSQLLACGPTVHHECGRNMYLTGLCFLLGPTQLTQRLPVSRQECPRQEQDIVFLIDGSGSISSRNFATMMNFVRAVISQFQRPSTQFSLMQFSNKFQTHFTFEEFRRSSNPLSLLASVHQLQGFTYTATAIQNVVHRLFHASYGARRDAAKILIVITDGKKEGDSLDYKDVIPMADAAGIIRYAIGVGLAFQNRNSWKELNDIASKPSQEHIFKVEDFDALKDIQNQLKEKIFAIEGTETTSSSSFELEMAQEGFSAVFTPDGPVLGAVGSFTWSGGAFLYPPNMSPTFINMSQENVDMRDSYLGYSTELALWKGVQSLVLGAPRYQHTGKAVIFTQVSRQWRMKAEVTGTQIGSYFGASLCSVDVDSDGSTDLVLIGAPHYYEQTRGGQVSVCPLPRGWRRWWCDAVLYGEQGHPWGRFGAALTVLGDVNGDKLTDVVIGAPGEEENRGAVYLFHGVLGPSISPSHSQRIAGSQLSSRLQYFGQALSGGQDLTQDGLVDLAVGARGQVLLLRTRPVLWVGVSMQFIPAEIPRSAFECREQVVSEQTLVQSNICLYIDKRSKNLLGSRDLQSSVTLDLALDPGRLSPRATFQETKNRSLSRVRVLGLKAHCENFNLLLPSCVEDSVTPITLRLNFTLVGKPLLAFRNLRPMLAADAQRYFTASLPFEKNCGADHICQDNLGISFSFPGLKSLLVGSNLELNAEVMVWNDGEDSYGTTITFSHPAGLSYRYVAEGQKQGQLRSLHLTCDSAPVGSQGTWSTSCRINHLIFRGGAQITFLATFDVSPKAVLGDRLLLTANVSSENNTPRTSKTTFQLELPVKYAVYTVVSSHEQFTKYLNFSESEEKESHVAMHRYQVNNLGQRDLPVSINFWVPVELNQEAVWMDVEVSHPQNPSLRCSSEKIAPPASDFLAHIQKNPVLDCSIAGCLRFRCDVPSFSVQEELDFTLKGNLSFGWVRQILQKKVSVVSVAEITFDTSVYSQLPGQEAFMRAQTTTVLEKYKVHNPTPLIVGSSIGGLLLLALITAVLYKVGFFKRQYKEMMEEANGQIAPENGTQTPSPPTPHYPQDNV
- Sequence (P05107 23-769 partner): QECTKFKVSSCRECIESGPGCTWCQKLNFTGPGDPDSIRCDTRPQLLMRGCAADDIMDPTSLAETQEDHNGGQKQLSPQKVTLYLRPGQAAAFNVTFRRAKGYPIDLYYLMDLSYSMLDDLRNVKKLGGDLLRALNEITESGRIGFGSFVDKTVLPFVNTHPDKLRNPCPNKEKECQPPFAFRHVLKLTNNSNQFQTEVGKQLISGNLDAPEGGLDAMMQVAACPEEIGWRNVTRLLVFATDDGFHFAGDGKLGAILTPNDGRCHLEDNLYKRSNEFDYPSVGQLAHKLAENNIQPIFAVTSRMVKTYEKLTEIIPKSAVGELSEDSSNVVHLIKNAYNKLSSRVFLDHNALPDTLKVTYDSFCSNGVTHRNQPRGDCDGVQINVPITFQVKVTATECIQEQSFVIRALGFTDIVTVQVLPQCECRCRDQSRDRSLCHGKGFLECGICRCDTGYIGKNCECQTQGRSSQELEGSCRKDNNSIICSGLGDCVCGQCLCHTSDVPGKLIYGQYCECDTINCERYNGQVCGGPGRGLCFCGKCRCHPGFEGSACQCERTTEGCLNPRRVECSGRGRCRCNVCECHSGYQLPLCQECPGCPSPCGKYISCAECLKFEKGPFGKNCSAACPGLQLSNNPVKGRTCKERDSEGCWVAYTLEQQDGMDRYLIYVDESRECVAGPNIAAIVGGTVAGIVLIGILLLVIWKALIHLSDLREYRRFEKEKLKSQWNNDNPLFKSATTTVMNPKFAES
- measurement-notes: HTS cell adhesion assay, K562 CD11c/CD18 cells on immobilized fibrinogen
- Assay type: cell-based
measured-endpoint: EC50 (nM)

Look over these answered cases.
compound=COc1ccc(-c2nnn(CC(=O)Nc3sc4c(c3C#N)CCCC4)n2)cc1 tested_on="integrin CD11c/CD18 (Homo sapiens, UniProt P20702)" val=4610
compound="O=C1Nc2ccccc2SC(c2ccccc2)C1O (centres unmarked)" tested_on="integrin CD11c/CD18 (Homo sapiens, UniProt P20702)" val=1890
compound=Cc1ccc(-n2nnnc2SCC(=O)Nc2ccc3c(c2)COC3=O)cc1C tested_on="integrin CD11c/CD18 (Homo sapiens, UniProt P20702)" val=3320
compound=C=CCOC(=O)c1cc(-c2ccc(/C=C3\C(=O)NC(=O)C(C#N)=C3C)o2)ccc1Cl tested_on="integrin CD11c/CD18 (Homo sapiens, UniProt P20702)" val=2540
compound=O=C(Nc1ccc2oc(-c3ccccc3F)nc2c1)c1cncc(Br)c1 tested_on="integrin CD11c/CD18 (Homo sapiens, UniProt P20702)" val=2670
compound=CS(=O)(=O)c1ccc2c(c1)SC1=NC(=O)/C(=C/c3ccco3)C(=N)N12 tested_on="integrin CD11c/CD18 (Homo sapiens, UniProt P20702)" val=4210

A. N#Cc1sc2nc(-c3ccccc3)cc(-c3ccco3)c2c1N
B. O=C(ONc1ccc(N=NC(=O)c2ccccc2O)cc1)c1ccccc1
// which entry reports the smaller EC50, A or B ? Please identify the chosen entry by its label.
A

* * *

- tested-on: mutant integrin CD11bE320A/CD18 (Homo sapiens, UniProt P11215, E336A)
- Construct: expressed in transfected cells; host or cells: K562 (ATCC)
- Sequence (P11215 17-1152 E336A, one chain of several): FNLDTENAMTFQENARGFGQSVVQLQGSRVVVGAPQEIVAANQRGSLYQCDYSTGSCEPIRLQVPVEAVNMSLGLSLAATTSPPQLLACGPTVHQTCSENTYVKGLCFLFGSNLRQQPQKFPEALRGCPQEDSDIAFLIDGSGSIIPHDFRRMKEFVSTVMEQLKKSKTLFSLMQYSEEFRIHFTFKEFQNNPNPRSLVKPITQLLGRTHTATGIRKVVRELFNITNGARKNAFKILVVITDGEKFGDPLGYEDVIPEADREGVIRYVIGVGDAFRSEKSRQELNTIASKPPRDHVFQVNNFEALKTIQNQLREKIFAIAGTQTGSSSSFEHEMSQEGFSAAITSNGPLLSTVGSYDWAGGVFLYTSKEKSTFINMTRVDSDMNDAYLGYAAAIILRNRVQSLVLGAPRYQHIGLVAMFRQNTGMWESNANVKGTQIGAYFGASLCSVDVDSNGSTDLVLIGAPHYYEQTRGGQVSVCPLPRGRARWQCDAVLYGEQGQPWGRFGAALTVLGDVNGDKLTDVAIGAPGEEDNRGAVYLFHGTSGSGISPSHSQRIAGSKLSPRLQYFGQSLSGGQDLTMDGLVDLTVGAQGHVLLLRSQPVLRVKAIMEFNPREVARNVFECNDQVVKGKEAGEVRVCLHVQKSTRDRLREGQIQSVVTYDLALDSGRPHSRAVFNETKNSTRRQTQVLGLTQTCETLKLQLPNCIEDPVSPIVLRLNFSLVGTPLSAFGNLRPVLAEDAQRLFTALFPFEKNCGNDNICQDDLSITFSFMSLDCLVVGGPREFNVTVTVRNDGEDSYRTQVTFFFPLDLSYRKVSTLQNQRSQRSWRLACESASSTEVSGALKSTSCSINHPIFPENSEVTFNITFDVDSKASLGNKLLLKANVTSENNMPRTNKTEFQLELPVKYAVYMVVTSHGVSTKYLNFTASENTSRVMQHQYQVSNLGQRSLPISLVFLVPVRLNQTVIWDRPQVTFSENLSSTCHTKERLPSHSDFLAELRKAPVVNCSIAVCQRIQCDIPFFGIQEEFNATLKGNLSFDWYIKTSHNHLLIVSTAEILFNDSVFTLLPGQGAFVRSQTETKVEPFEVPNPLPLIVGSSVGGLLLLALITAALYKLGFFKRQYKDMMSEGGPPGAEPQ
- measurement-notes: HTS cell adhesion assay, K562 E320A cells on immobilized fibrinogen
- Format: cell-based
- applied-conditions: Table 3, adhesion to fibrinogen, five point dose-response
measured-endpoint: EC50 E320A

Look over these answered cases.
compound="Cc1ccc(/C=C/C(=O)Nc2nnc(SCc3ccc(C#N)cc3)s2)o1 [Compound 2126150]" tested_on="mutant integrin CD11bE320A/CD18 (Homo sapiens, UniProt P11215, E336A)" measured_endpoint="EC50 E320A" val=Infinite
compound="N#Cc1cccc(NC(=O)CSc2ccc3c4c(cccc24)C(=O)c2ccccc2-3)c1 [Compound 4835204]" tested_on="mutant integrin CD11bE320A/CD18 (Homo sapiens, UniProt P11215, E336A)" measured_endpoint="EC50 E320A" val=Infinite
compound="COc1cc(/C=C2/SC(=S)N(c3ccccc3)C2=O)ccc1Oc1nc(N2CCOCC2)nc(N2CCOCC2)n1 [Compound 5343920]" tested_on="mutant integrin CD11bE320A/CD18 (Homo sapiens, UniProt P11215, E336A)" measured_endpoint="EC50 E320A" val="Very Low"
compound="CCCC(=O)Nc1ccc(-c2cnc(-c3ccc(NC(=O)CCC)cc3)nc2)cc1 [Compound 1272696]" tested_on="mutant integrin CD11bE320A/CD18 (Homo sapiens, UniProt P11215, E336A)" measured_endpoint="EC50 E320A" val=Infinite

Memo: O=C(O)CCN1C(=O)/C(=C\c2ccc(-c3nc4ccccc4s3)o2)SC1=S [Compound 2030970] , reported EC50 E320A: Very Low

Memo: COc1ccc(-c2cc(C(=O)OCC(=O)Nc3ccc4c(c3)OCO4)c3ccccc3n2)cc1 [Compound 2338283] , reported EC50 E320A: Infinite

* * *

- tested-on: mutant integrin CD11bE320A/CD18 (Homo sapiens, UniProt P11215, E336A)
- Construct: expressed in transfected cells; host or cells: K562 (ATCC)
- measurement-notes: HTS cell adhesion assay, K562 E320A cells on immobilized fibrinogen
- Assay type: cell-based
- applied-conditions: Table 3, adhesion to fibrinogen, five point dose-response
pEC50: −log10 of the molar value.
measured-endpoint: pEC50

compound_structure=CCCCN1C(=O)/C(=C/c2ccc(N3CCCCCC3)cc2)C(=O)NC1=S val=4.11
compound_structure=O=C(Nc1ccc(NC(=O)c2ccc(S(=O)(=O)c3ccccc3)cc2)cc1)c1ccccc1 val=5.15

P. Cc1ccc(-n2c(N)c(C(=O)Nc3c(C)n(C)n(-c4ccccc4)c3=O)c3nc4ccccc4nc32)cc1
Q. COC(=O)c1cc(OC)c(OC)cc1NC(=O)c1cc(-c2ccccc2)nc2ccccc12.Cl
// which entry reports the smaller pEC50, P or Q ? Please identify the chosen entry by its label.
Q
(Q: 4.89, P: 5.26)

* * *

- tested-on: mutant integrin CD11bE320A/CD18 (Homo sapiens, UniProt P11215, E336A)
- Construct: expressed in transfected cells; host or cells: K562 (ATCC)
- measurement-notes: HTS cell adhesion assay, K562 E320A cells on immobilized fibrinogen
- Assay type: cell-based
- applied-conditions: Table 3, adhesion to fibrinogen, five point dose-response
measured-endpoint: EC50 (µM)

P. Cc1sc2nc(CSc3nc4ccccc4c(=O)n3CCCN3CCOCC3)[nH]c(=O)c2c1C
Q. COc1ccc2cc3cc(C(=O)Nc4ccc5c(c4)OCCO5)oc3nc2c1
R. O=c1c(-c2nc3ccccc3o2)c2oc3ccccc3n2c2ccccc12
S. COc1ccc(-n2c(SCC(=O)Nc3nccs3)nc3sc4c(c3c2=O)CCN(C)C4)cc1
List these items ordered by EC50, big to small. Your reply should list the labels following the order given in the request.
S, P, R, Q

* * *

- tested-on: integrin CD11c/CD18 (Homo sapiens, UniProt P20702)
- Construct: expressed in transfected cells; host or cells: K562 (ATCC)
- measurement-notes: HTS cell adhesion assay, K562 CD11c/CD18 cells on immobilized fibrinogen
- Type: cell-based
- applied-conditions: Table 3; K562 CD11c/CD18 cells, adhesion to fibrinogen, dose-response
measured-endpoint: EC50 CD11c/CD18

Look over these answered cases.
compound=COC(=O)c1cc(OC)c(OC)cc1NC(=O)c1cc(-c2ccccc2)nc2ccccc12.Cl val=Infinite
compound=CCC(=O)Nc1c(C#N)c2nc3ccccc3nc2n1C1CCCCC1 val="1.669 (Reverse)"
compound=CCc1cc(=O)oc2cc(C)c3c(C)coc3c12 val=Infinite
compound="O=C(Cn1c(=O)oc2cc(S(=O)(=O)N3CCCC3)ccc21)NC1CCCc2ccccc21 (stereo not drawn)" val="Very Low"
compound=N#C/C(=C\c1ccc(OCc2ccccc2)cc1)C(=O)Nc1nc2c(s1)CCN(Cc1ccccc1)C2 val=Infinite
compound=O=C(Oc1ccc2c(=O)c(Oc3ccc4ccccc4c3)coc2c1)c1cncc(Br)c1 val=Infinite
compound=O=C(O)CCN1C(=O)/C(=C/c2ccc(-c3nc4ccccc4s3)o2)SC1=S val="Very Low"

Memo: Cn1c(C(=O)NCCN2CCc3ccccc3C2)cc2c(=O)n(C)c3ccccc3c21 , reported EC50 CD11c/CD18: Infinite

* * *

- tested-on: mutant integrin CD11bE320A/CD18 (Homo sapiens, UniProt P11215, E336A)
- Construct: expressed in transfected cells; host or cells: K562 (ATCC)
- measurement-notes: HTS cell adhesion assay, K562 E320A cells on immobilized fibrinogen
- Format: cell-based
- applied-conditions: Table 3, adhesion to fibrinogen, five point dose-response
pEC50: −log10 of the molar value.
measured-endpoint: pEC50

Look over these answered cases.
compound="Cc1ccc(-c2cc(C(=O)N/N=C/C=C/c3ccco3)c3ccccc3n2)cc1C [Compound 1764811]" measured_endpoint=pEC50 val=4.71
compound="O=C(Nc1nc(-c2ccco2)c(-c2ccco2)s1)C1CC(=O)N(c2ccc3c(c2)OCCO3)C1 (stereo not drawn) [Compound 2998894]" measured_endpoint=pEC50 val=5.23
compound="NS(=O)(=O)c1ccc(NC(=S)NC(=O)c2ccc(-c3ccccc3)cc2)cc1 [Compound 1011163]" measured_endpoint=pEC50 val=4.89
compound="Cn1c(C(=O)NCCN2CCc3ccccc3C2)cc2c(=O)n(C)c3ccccc3c21 [Compound 5309909]" measured_endpoint=pEC50 val=3.59
compound="O=C(CSc1nc2sc3c(c2c(=O)n1-c1ccccc1)CCCC3)NCc1ccco1 [Compound 1322134]" measured_endpoint=pEC50 val=4.92

a. Cc1ccc(/C=C2\SC(=S)N(CC(=O)Nc3ncc(Cc4ccccc4Cl)s3)C2=O)cc1 [Compound 1871747]
b. COc1ccc(C(=O)Nc2ccc(N3CCCC3)cc2)cc1 [Compound 960708]
c. CCCCCCCC(=O)Nc1ccc(C(=O)N/N=C/c2cccc([N+](=O)[O-])c2)cc1 [Compound 9774264]
d. Cc1csc(NC(=O)c2cc(-c3ccco3)nc3ccccc23)n1 [Compound 2366866]
Could you please order the items by pEC50, going from the lowest number to the highest? Your reply should list the labels following the order given in the request.
b, a, d, c

P. COc1cc(NC(=O)c2noc3c2CCC3)c(OC)cc1Cl [Compound 3238190]
Q. O=C1Nc2ccccc2SC(c2ccccc2)C1O (stereo not drawn) [Compound 3242458]
In the pair P and Q , the larger recorded pEC50 belongs to which? Please identify the chosen entry by its label.
Q
(Q: 5.55, P: 4.98)
